experiment: PK of compound of Formula (Ia) after single subcutaneous dose of solution formulations in beagle dogs; type: in vivo; settings: male, beagle, dog, plasma, sc, 12 mg/kg, mean ± SD, n = 3 dogs; SC 12 mg/kg; solution U, 500 mg/mL; read-out: AUC0-2016 h
endpoint_name: AUC(0-t) (µM·h)
Write the value in µM·h as a bare number.

The recorded AUC(0-t) for CC(C)(C#Cc1ccc(-c2ccc(Cl)c3c(NS(C)(=O)=O)nn(CC(F)(F)F)c23)c([C@H](Cc2cc(F)cc(F)c2)NC(=O)Cn2nc(C(F)(F)F)c3c2C(F)(F)[C@@H]2C[C@H]32)n1)S(C)(=O)=O is 133

The origin of these recorded values is patent US11807625B2.
